Reported values of pIC50 for individual entries
# ASSAY TARGET: human TREX2 (residues M44-A279) (Homo sapiens (Human), UniProt Q9BQ50)
# Sequence (Q9BQ50 whole entry, the tested form may be a part): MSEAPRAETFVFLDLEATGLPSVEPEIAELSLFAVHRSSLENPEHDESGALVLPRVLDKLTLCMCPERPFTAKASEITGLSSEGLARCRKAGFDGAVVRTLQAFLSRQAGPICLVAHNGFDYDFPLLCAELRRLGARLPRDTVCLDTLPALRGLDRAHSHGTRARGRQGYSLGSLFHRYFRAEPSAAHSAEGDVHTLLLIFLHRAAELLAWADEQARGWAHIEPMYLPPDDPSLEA
# ASSAY OVERVIEW: TREX2 Biochemical Assay (fluorescence assay measuring degradation of dsDNA substrate)
# DETAILS: 2.5 nM TREX2, 60 nM dsDNA substrate, 25 minutes at room temperature
pIC50: −log10 of the molar value.

Entry CC(=O)N1CCCC(c2nc(C(=O)Nc3cnoc3)c(O)c(=O)n2C)C1 (stereo not shown) [Example 64] under human TREX2 (residues M44-A279) (Homo sapiens (Human), UniProt Q9BQ50) had pIC50 of 4.00 to 5.00

Entry Cn1c(N2CCC[C@@H]2c2ccccc2)nc(C(=O)Nc2cnoc2)c(O)c1=O [Example 113] under human TREX2 (residues M44-A279) (Homo sapiens (Human), UniProt Q9BQ50) had pIC50 of 5.00 to 6.00

Entry Cn1c(C2CCCN(C(=O)Cc3ccccc3)C2)nc(C(=O)Nc2cnoc2)c(O)c1=O (stereo not shown) [Example 61] under human TREX2 (residues M44-A279) (Homo sapiens (Human), UniProt Q9BQ50) had pIC50 of 5.00 to 6.00

Entry Cn1c(C2CCCN(C(=O)c3cccnc3)C2)nc(C(=O)Nc2cnoc2)c(O)c1=O (stereo not shown) [Example 62] under human TREX2 (residues M44-A279) (Homo sapiens (Human), UniProt Q9BQ50) had pIC50 of 5.00 to 6.00

---

# ASSAY TARGET: UniProtKB Q9NSU2
# Sequence (Q9NSU2 whole entry): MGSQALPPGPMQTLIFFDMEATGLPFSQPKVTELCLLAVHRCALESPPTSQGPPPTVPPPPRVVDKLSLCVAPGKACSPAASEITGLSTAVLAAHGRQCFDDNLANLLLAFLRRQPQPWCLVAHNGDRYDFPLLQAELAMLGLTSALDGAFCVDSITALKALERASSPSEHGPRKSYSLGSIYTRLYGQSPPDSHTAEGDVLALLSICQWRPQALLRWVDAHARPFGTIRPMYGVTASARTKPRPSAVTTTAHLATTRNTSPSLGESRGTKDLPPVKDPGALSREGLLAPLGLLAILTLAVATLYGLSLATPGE
# ASSAY OVERVIEW: TREX1 Biochemical Assay (fluorescence assay measuring degradation of dsDNA substrate)
# DETAILS: 150 pM TREX1, 60 nM dsDNA substrate, 25 minutes at room temperature
pIC50: −log10 of the molar value.
Reported values of pIC50 for individual entries

compound="Cn1c(CC2CCCN(C(=O)OC(C)(C)C)C2)nc(C(=O)Nc2cnoc2)c(O)c1=O (centres unmarked)" assay_readout=pIC50 result="6.00 to 7.00"
compound=Cn1c([C@@H]2CCN(C(=O)c3ccc(Cl)cc3)C2)nc(C(=O)Nc2cnoc2)c(O)c1=O assay_readout=pIC50 result="6.00 to 7.00"
compound=Cn1c(N2CCN(C(=O)c3ccccc3)CC2)nc(C(=O)Nc2cnoc2)c(O)c1=O assay_readout=pIC50 result="6.00 to 7.00"

The compound CN1CCN(c2nc(C(=O)Nc3cnoc3)c(O)c(=O)n2C)CC1 showed pIC50 equal to 6.00 to 7.00

The compound CC(=O)N1CCCC(c2nc(C(=O)Nc3cnoc3)c(O)c(=O)n2C)C1 (centres unmarked) showed pIC50 equal to 6.00 to 7.00

The compound CC(=O)N1CCN(c2nc(C(=O)Nc3cnoc3)c(O)c(=O)n2C)[C@H](c2ccccc2Cl)C1 showed pIC50 equal to > 7.00

The compound Cn1c(C2CCCN(C(=O)c3ccc(Cl)cc3)C2)nc(C(=O)Nc2cnoc2)c(O)c1=O (centres unmarked) showed pIC50 equal to 6.00 to 7.00

The compound Cn1c([C@H]2CCCN(S(=O)(=O)c3ccc(Cl)c(Cl)c3)C2)nc(C(=O)Nc2cnoc2)c(O)c1=O showed pIC50 equal to 6.00 to 7.00

The compound COC(=O)c1cc(C)cc(-c2nc(C(=O)Nc3cnoc3)c(O)c(=O)n2C)c1 showed pIC50 equal to 6.00 to 7.00

The compound Cc1cc(Nc2cccc(C)n2)cc(-c2nc(C(=O)Nc3cnoc3)c(O)c(=O)n2C)c1 showed pIC50 equal to 6.00 to 7.00

The compound Cn1c(N2CCC[C@@H]2c2ccccc2)nc(C(=O)Nc2cnoc2)c(O)c1=O showed pIC50 equal to > 7.00

The compound Cn1c(OC2CCCCC2)nc(C(=O)Nc2cnoc2)c(O)c1=O showed pIC50 equal to > 7.00

The compound Cn1c(C2CCCN(C(=O)c3ccncc3)C2)nc(C(=O)Nc2cnoc2)c(O)c1=O (centres unmarked) showed pIC50 equal to 6.00 to 7.00
